Target: T1, Human soluble IL6-R (human, UniProt P08887 20-358)
T1 construct: Bought soluble receptor; biotinylated in some Alphascreen assays; also called sIL6-R; hIL-6R
T1 sequence (looked up): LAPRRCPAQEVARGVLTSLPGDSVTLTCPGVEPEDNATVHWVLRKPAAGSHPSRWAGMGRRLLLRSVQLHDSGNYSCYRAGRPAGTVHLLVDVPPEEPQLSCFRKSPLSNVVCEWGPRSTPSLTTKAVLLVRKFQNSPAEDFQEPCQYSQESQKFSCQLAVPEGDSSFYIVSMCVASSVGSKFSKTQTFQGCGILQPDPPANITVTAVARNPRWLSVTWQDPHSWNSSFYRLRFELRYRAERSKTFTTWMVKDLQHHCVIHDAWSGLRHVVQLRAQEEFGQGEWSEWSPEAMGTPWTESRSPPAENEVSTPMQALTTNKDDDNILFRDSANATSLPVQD
Assay: SPR (Biacore 3000), IL6-R on CM5 chip
resultType: Kd (nM)

{"binder": "IL6R05 (VHH, also called PMP32E10; PMP 32 E10) VHH: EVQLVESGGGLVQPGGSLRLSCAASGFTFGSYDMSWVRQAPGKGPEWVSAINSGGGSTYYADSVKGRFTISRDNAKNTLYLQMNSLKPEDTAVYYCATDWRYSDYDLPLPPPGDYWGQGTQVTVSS", "unitString": "nM", "Kd": 9.79}

A = IL6R01 (VHH, also called PMP28E11; PMP 28 E11) VHH: EVQLVESGGGFVQAGGSLRLSCIASGDNFSINRMGWYRQALGKQRELVAIITNHGSTNYADAVKGRFTISRDYAKNTVYLQMNGLKPDDTAVYYCNAYISEVGTWRDDYWGQGIQVTVSS
B = IL6R06 (VHH, also called PMP32E2; PMP 32 E2) VHH: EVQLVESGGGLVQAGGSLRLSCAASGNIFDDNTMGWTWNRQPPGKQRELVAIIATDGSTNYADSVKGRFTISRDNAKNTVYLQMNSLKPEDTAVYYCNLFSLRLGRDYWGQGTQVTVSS
C = IL6R04 (VHH, also called PMP32C9; PMP 32 C9) VHH: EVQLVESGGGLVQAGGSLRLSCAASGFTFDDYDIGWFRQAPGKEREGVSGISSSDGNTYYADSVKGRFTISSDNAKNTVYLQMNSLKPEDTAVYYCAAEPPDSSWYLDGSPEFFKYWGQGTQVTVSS
Prompt: I would appreciate it if you could sort these 3 binders by Kd, starting from the smallest number. State the ranking by listing the labels in the requested order.
Response: C, A, B
(C: 0.26 nM, A: 0.418 nM, B: 7.1 nM)
